Tested on: 171881-019-R-J1-PDC tumor spheroids, viability
Experiment: Anticancer human tumor 171881-019-R-J1-PDC patient-derived invasive breast carcinoma cell line growth inhibition [GQUAD]
Conditions: second compound 0.316 µM; first compound 0.0316 µM; stronger effect = lower value; spheroids with HUVEC and MSC
So basically, if viability, T/C comes in under 70% it's Y, and if it's 70% or more it's N.

- CCc1c2c(nc3ccc(O)cc13)-c1cc3c(c(=O)n1C2)COC(=O)[C@]3(O)CC + Cc1cnc(CNC(=O)c2c(=O)c3ccc(N4CCCN(C)CC4)nc3n3c2sc2ccccc23)cn1: Y
- C#Cc1c(F)ccc2cc(O)cc(-c3ncc4c(N5CC6CCC(C5)N6)nc(OCC56CCCN5CC(F)C6)nc4c3F)c12 (centres undefined) + CN(C)c1ccc(Nc2c3ccc(NC(=O)CCN4CCCC4)cc3nc3cc(NC(=O)CCN4CCCC4)ccc23)cc1: Y
- COc1ccc([C@@H](O)c2cc(-c3ncnc4cc(N5CCOCC5)ccc34)c(F)cc2Cl)nn1 + CN(C)c1ccc(Nc2c3ccc(NC(=O)CCN4CCCC4)cc3nc3cc(NC(=O)CCN4CCCC4)ccc23)cc1: N
- Cc1[nH]c2ccccc2c1CCNCc1ccc(/C=C/C(=O)NO)cc1 + Cc1cnc(CNC(=O)c2c(=O)c3ccc(N4CCCN(C)CC4)nc3n3c2sc2ccccc23)cn1: Y
- O=C(NO)c1cnc(N2CCN(S(=O)(=O)c3ccc4ccccc4c3)CC2)nc1 + Cc1cnc(CNC(=O)c2c(=O)c3ccc(N4CCCN(C)CC4)nc3n3c2sc2ccccc23)cn1: Y
- CC(C)(O)C1CCC(Nc2ccc3ncc(-c4cccc(C(F)(F)F)c4)n3n2)CC1 (centres undefined) + CN(C)c1ccc(Nc2c3ccc(NC(=O)CCN4CCCC4)cc3nc3cc(NC(=O)CCN4CCCC4)ccc23)cc1: Y

# input for lookup
Could you please tell me whether viability, T/C recorded for Cn1ncnc1[C@H]1c2n[nH]c(=O)c3cc(F)cc(c23)N[C@@H]1c1ccc(F)cc1 + Cc1[nH]c2ccc(F)cc2c1-c1nc2c3cccnc3c3ncccc3c2[nH]1 is less than 70%?
N

###

Test system: 171881-019-R-J1-PDC tumor spheroids, viability
Test: Anticancer human tumor 171881-019-R-J1-PDC cell line growth inhibition [GQUAD]; active means viability on the fitted dose curve at most 10% of control; inactive means the rest;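 note: spheroids exposed to compounds for 7 days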
Conditions: second compound 0.1 µM; first compound 3.16 µM; spheroids with HUVEC and MSC
Valid outcomes are listed here; reply with one: active, inactive

Consider the following illustrative entries.
• COc1cccc2c1C(=O)c1c(O)c3c(c(O)c1C2=O)CC(O)(C(=O)CO)CC3OC1CC(N)C(O)C(C)O1 (stereo unspecified) + CN(C)c1ccc(Nc2c3ccc(NC(=O)CCN4CCCC4)cc3nc3cc(NC(=O)CCN4CCCC4)ccc23)cc1 = active
• CC1COCCN1c1cc(-c2ccnn2C)c2ccnc(-c3ccn[nH]3)c2n1 (stereo unspecified) + CN(C)c1ccc(Nc2c3ccc(NC(=O)CCN4CCCC4)cc3nc3cc(NC(=O)CCN4CCCC4)ccc23)cc1 = active
• O=c1[nH]cc(F)c(=O)[nH]1 + CN(C)c1ccc(Nc2c3ccc(NC(=O)CCN4CCCC4)cc3nc3cc(NC(=O)CCN4CCCC4)ccc23)cc1 = inactive

Record request — test call for Cc1cccc(N(C)C(=O)C2C(O)CCN2c2nc(C)cc(C(F)(F)F)c2C#N)c1 (stereo unspecified) + Cc1[nH]c2ccc(F)cc2c1-c1nc2c3cccnc3c3ncccc3c2[nH]1
inactive

Record request — test call for CC(C)n1c(=O)n(C)c2cnc3cc(F)c(-c4ccc(OCCCN5CCCCC5)nc4)cc3c21 + Cc1cnc(CNC(=O)c2c(=O)c3ccc(N4CCCN(C)CC4)nc3n3c2sc2ccccc23)cn1
inactive

Record request — test call for CCCS(=O)(=O)Nc1ccc(F)c(C(=O)c2c[nH]c3ncc(-c4ccc(Cl)cc4)cc23)c1F + Cc1[nH]c2ccc(F)cc2c1-c1nc2c3cccnc3c3ncccc3c2[nH]1
inactive
